assay.name: Plasma concentration in Wistar rat at 10 mg/kg, po qd measured after first dosing during Vogel punished drinking conflict test
Format: ADME, organism-based
value.kind: concentration at 1 day (nM)
All answers are understood in nM, so give the number only.

// Input: N#Cc1cccc(S(=O)(=O)c2cnc3cc(F)ccc3c2-c2ccc(Cl)cc2)c1 . Output its concentration at 1 day only.
787

* * *

Tested on: Plasma
assay.name: Plasma concentration in Wistar rat at 30 mg/kg, ip administered as single dose
Type: ADME, organism-based
experimental.setup: in vivo
Please go through the items and note down their concentration.
All answers are understood in nM, so give the number only.

// Input: O=S(=O)(c1cc(F)cc(F)c1)c1cnc2cc(F)ccc2c1-c1ccc(F)cc1 . Output its concentration only.
206

// Input: O=S(=O)(c1ccc(F)c(F)c1)c1cnc2cc(F)ccc2c1-c1ccc(F)cc1 . Output its concentration only.
247

// Input: O=S(=O)(c1cc(F)cc(F)c1)c1cnc2cc(F)ccc2c1-c1cccc(F)c1 . Output its concentration only.
63

* * *

Test system: Liver
assay.name: Intrinsic clearance in rat liver microsomes at 2.5 uM assessed per gram of liver
Format: ADME, microsome
Criterion: CLint strictly less than 0.7 mL/min/g. Met: TRUE. Not met: FALSE.

# strict comparison: is reported CLint < 0.7 mL/min/g? input = O=S(=O)(c1cc(Cl)cc(Cl)c1)c1cnc2c(F)cccc2c1-c1ccc(F)cc1
FALSE

# strict comparison: is reported CLint < 0.7 mL/min/g? input = O=S(=O)(c1cc(F)cc(F)c1)c1cnc2cc(F)ccc2c1-c1ccc(F)cc1
FALSE

# strict comparison: is reported CLint < 0.7 mL/min/g? input = O=S(=O)(c1cccc(F)c1)c1cnc2c(F)cccc2c1-c1ccc(F)cc1
TRUE

# strict comparison: is reported CLint < 0.7 mL/min/g? input = O=S(=O)(c1cc(Cl)cc(Cl)c1)c1cnc2cc(F)ccc2c1-c1ccc(F)cc1
FALSE

# strict comparison: is reported CLint < 0.7 mL/min/g? input = O=S(=O)(c1ccc(F)cc1)c1cnc2cc(F)ccc2c1-c1ccc(Cl)cc1
FALSE

# strict comparison: is reported CLint < 0.7 mL/min/g? input = O=S(=O)(c1ccc(F)cc1)c1cnc2cc(F)c(Cl)cc2c1-c1ccc(Cl)cc1
TRUE

# strict comparison: is reported CLint < 0.7 mL/min/g? input = O=S(=O)(c1ccc(F)c(F)c1)c1cnc2cc(F)ccc2c1-c1ccc(F)cc1
TRUE

# strict comparison: is reported CLint < 0.7 mL/min/g? input = Cc1ccc(S(=O)(=O)c2cnc3ccccc3c2-c2ccc(Cl)cc2)cc1
FALSE

# strict comparison: is reported CLint < 0.7 mL/min/g? input = O=S(=O)(c1ccc(F)cc1)c1cnc2ccc(Cl)cc2c1-c1ccc(Cl)cc1
TRUE

# strict comparison: is reported CLint < 0.7 mL/min/g? input = Cc1ccc(S(=O)(=O)c2cnc3ccccc3c2N2CCOCC2)cc1C
FALSE

# strict comparison: is reported CLint < 0.7 mL/min/g? input = O=S(=O)(c1ccc(F)cc1)c1cnc2ccc(F)cc2c1-c1ccc(Cl)cc1
TRUE

# strict comparison: is reported CLint < 0.7 mL/min/g? input = N#Cc1cccc(S(=O)(=O)c2cnc3cc(F)ccc3c2-c2ccc(Cl)cc2)c1
TRUE

# strict comparison: is reported CLint < 0.7 mL/min/g? input = Cc1cccc(C#Cc2ccccc2)n1
TRUE

# strict comparison: is reported CLint < 0.7 mL/min/g? input = O=S(=O)(c1cc(Cl)cc(Cl)c1)c1cnc2cc(F)ccc2c1-c1ccc(Cl)cc1
FALSE

# strict comparison: is reported CLint < 0.7 mL/min/g? input = O=S(=O)(c1ccc(F)c(F)c1)c1cnc2c(F)cccc2c1-c1ccc(Cl)cc1
TRUE

# strict comparison: is reported CLint < 0.7 mL/min/g? input = O=S(=O)(c1ccc(F)c(Cl)c1)c1cnc2cc(F)ccc2c1-c1ccc(Cl)cc1
TRUE

# strict comparison: is reported CLint < 0.7 mL/min/g? input = O=S(=O)(c1cc(F)cc(F)c1)c1cnc2c(F)cccc2c1-c1ccc(F)cc1
TRUE

# strict comparison: is reported CLint < 0.7 mL/min/g? input = N#Cc1ccc2c(-c3ccc(Cl)cc3)c(S(=O)(=O)c3ccc(F)cc3)cnc2c1
TRUE

# strict comparison: is reported CLint < 0.7 mL/min/g? input = O=S(=O)(c1ccc(F)cc1)c1cnc2c(F)c(Cl)ccc2c1-c1ccc(Cl)cc1
TRUE
